- Tested system: Nucleoprotein (Lymphocytic choriomeningitis virus (strain Armstrong))
- Method summary: qHTS for Inhibitors of the Functional Ribonucleoprotein Complex (vRNP) of Lymphocytic Choriomeningitis Arenaviruses (LCMV): LCMV Primary Screen - GLuc reporter signal (AID 1347086); further: nearly all actives have a fitted effect of over 70% in size
- Applied conditions: LCMV minigenome vRNP cell assay, Gaussia luciferase reporter; series mostly up to 57.5 µM
Records with an inconclusive call do not appear. The source made the active and inactive calls. The call rests on the fitted dose curve.
Labels: Y (active), N (inactive)

> print(dat)
                                   compound  category
1  CC(N[C@H]1CCCC[C@H]1NC(=O)c1ccc(Cl)cc1)c1cccc2ccccc12 (stereo partly specified)         Y
2  CCN(C(=O)c1c(O)c2c(Cl)cccc2n(C)c1=O)c1ccccc1         N
3          CN(C)c1nc(N)c(C(=O)N=C(N)N)nc1Cl         N
4  Cc1ccc(O)c(C(CCN(C(C)C)C(C)C)c2ccccc2)c1 (stereo unspecified)         N
5                               CCCC(=O)OCC         N
6  Nc1nc2c(ncn2[C@@H]2O[C@H](CO)[C@@H](O)[C@@H]2O)c(=O)[nH]1         N

----------
- Test system: Zika virus NS2B-NS3 protease (linked construct)
- Method summary: Primary screen NINDS Rhodamine qHTS for Zika virus inhibitors (AID 1347160); further: nearly all actives have a fitted effect of over 55% in size
- Applied conditions: purified NS2B-NS3 protease, Rhodamine110 substrate fluorescence; series mostly up to 57.1 µM
Records with an inconclusive call do not appear. Calls of active or inactive are those of the source. The call rests on the fitted dose curve; in most records, active means well fitted inhibition curve with a large enough effect; inconclusive means small, poorly fitted or top-dose-only effect; inactive means no such curve, though single readings can be large or run the other way. *1 amine or outer side, *2 acyl side, *3 side chain or, on linkers, in order; H or OH if unused. Where a SMILES comes first, the peptide text is derived from it. [ ]: non-standard residue; d: D form. X7 = O=C([C@@H](CC(O)CCl)O[*:1])[*:2]; aIle = CC[C@@H](C)[C@H](N)C(=O)O; NMeV = CN[C@H](C(=O)O)C(C)C; NMeA = CN[C@@H](C)C(=O)O; βAla = NCCC(=O)O
Labels: 1 for active, -1 for inactive

Compound	Category
CCCCN1[C@@H]2CC[C@H]1CC(OC(c1ccc(F)cc1)c1ccc(F)cc1)C2 (some centres undefined)	-1
CC(C)[C@H]1OC(=O)[C@H](Cc2ccccc2)N(C)C(=O)[C@@H](C(C)C)OC(=O)[C@H](Cc2ccccc2)N(C)C(=O)[C@@H](C(C)C)OC(=O)[C@H](Cc2ccccc2)N(C)C1=O	-1
c1cncc(OC[C@@H]2CCN2)c1	-1
CCOC(=O)c1ccnc2cc(C(OCCN3CCCCC3)c3ccccc3Cl)sc12 (centres undefined)	-1
COc1cccc(NCC(F)Cn2c3ccc(Br)cc3c3cc(Br)ccc32)c1 (centres undefined)	-1
C[C@H]1O[C@@H](O[C@H]2CC[C@]3(C=O)C4CC[C@]5(C)[C@@H](C6=CC(=O)OC6)CC[C@]5(O)[C@@H]4CC[C@]3(O)C2)C[C@@H](O)[C@@H]1O (some centres undefined)	-1
CCCCC[C@@H]1OC(=O)[C@@H](C)N(C)C(=O)[C@H](CCCCC)OC(=O)C(C)N(C)C(=O)[C@H](CCCCC)OC(=O)[C@@H](C)N(C)C(=O)[C@H](CCCCC)OC(=O)C(C)N(C)C1=O (some centres undefined)	1
FC(F)(F)c1ccc(N2CCNCC2)nc1Cl	-1
CN1CCN(c2nc3ccccc3nc2Cl)CC1	-1
C[C@]12CC[C@H](O)C[C@@H]1CC[C@@H]1[C@@H]2CC[C@]2(C)C(=O)CC[C@@H]12	-1
CC[C@@H](C)[C@@H]1NC(=O)[C@@H]2CCCN2C(=O)[C@@H](CC(O)CCl)OC(=O)CCNC(=O)[C@H](C)N(C)C(=O)[C@H](C(C)C)N(C)C1=O (some centres undefined) (cyclo([NMeA][βAla][X7]P[aIle][NMeV]))	-1
C[C@]12CC[C@H](O[C@@H]3O[C@H](CO)[C@@H](O)[C@H](O)[C@H]3O)CC1CC[C@@H]1C2CC[C@]2(C)[C@@H](C3=CC(=O)OC3)CC[C@]12O (some centres undefined)	-1
CC[C@H]1/C=C\C=C/C[C@@H](C)[C@H](O)[C@@](C)(O)C(=O)[C@@H](C)[C@H](O)[C@@H](C)C(=O)[C@@H](C)[C@H](O)[C@@H](C)/C=C\C(=O)O[C@@H]2[C@H](C)[C@H](CC1)O[C@]1(CC[C@H](C)[C@H](C[C@@H](C)O)O1)[C@H]2C	-1
C[C@]12CC[C@H](O)C[C@H]1CC[C@@H]1[C@@H]2[C@H](O)C[C@]2(C)[C@@H](c3ccc(=O)oc3)CC[C@]12O	-1
